variants and their reported protein stability index
B1: RAD51 (parent)
chain: APKKELINIKGISEAKADKILAEA

- Variants of: B1
- TEST DESCRIPTION: protein stability index of a GFP-peptide fusion (GPS, HEK-293T) (PSI 1-6); higher = more stable;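 note: lentivirally expressed fusions sorted by FACS into six bins by GFP to DsRed ratio, PSI derived from sequencing read proportions per bin multiplied by bin number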
- RUN CONDITIONS: c terminus: a fixed tail appended
Lab note: jot down the number only; don't add units.

Below are worked cases with known answers.
INSERT INTO results (variant, reading) VALUES
  ('G11I', 3.39),
  ('A24T', 5.36);

Can you look up the measured protein stability index of K4R for me?
4.39

These entries and their values trace back to the supplement of paper PMC10567573.
